Taken from patent US7528128B2.

// values below are reported ΔTm after incubation at 37° C. for 0 h
test system: duplex-form calf thymus DNA (CT-DNA); assay: Thermal denaturation studies with CT-DNA; type: binding; details: [PBD]:[DNA] 1:5, CT-DNA 100 μM, ligand 20 μM, pH 7.00, 0 h
Kindly answer with a numeric value in °C, unit omitted.

| COMPOUND | ΔTm after incubation at 37° C. for 0 h / °C |
| --- | --- |
| COc1cc2c(cc1OCCCCOc1ccc(Cl)cc1C(=O)c1ccccc1)N=C[C@@H]1CCCN1C2=O | 1.5 |
| COc1cc2c(cc1O)N=CC1CCCN1C2=O (stereo not shown) [DC-81, reference compound] | 0.3 |
| COc1cc2c(cc1OCC(=O)Nc1ccc(Cl)cc1C(=O)c1ccccc1Cl)N=C[C@@H]1CCCN1C2=O | 1.8 |

Here's the next entry for you.
`COc1cc2c(cc1OCCCCCCOc1c(Cl)cc(Cl)cc1C(=O)c1ccccc1)N=C[C@@H]1CCCN1C2=O` yielded ΔTm after incubation at 37° C. for 0 h of 1.5
